Target: 5-HT6R (5-hydroxytryptamine6 receptor, serotonin 6 receptor) (Homo sapiens)
Sequence (P50406 whole entry): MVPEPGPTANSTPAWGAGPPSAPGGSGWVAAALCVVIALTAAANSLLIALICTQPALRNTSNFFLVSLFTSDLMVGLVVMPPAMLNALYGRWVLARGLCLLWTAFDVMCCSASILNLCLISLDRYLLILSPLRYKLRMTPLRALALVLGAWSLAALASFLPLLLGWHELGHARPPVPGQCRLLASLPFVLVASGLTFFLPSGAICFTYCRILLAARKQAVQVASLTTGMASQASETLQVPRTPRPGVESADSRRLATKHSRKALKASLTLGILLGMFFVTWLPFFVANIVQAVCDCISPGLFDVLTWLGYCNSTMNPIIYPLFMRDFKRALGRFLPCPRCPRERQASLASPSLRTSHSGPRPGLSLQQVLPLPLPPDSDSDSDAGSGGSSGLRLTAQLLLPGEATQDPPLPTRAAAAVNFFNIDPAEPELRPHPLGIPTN
Experiment: radioligand competition with [3H]-LSD; supported by cAMP accumulation in […] cells with human 5-HT6R plasmid
measured-metric: IC50 (µM)
Your answer should be a plain number; it is taken to be in µM.

Input: Could you please provide reported IC50 for CC/C=C\C/C=C\C/C=C\C/C=C\C/C=C\CCCC(=O)O ? Thanks!
Output: 26.6
